targetOrSystem: AgHof1
experimentalDetails: SPOT peptide array binding signal intensity (averaged, normalized) (arbitrary units (background-subtracted, floor 0; scale differs between SH3 domains)); higher = stronger binding of the SH3 domain to the peptide
experimentalReadout: SPOT peptide array binding signal intensity
Numbers only.

For the 2 binders below, give their SPOT peptide array binding signal intensity values.
1. LLIRWLILMPLVGSR
2. ANNQGPPNLPARDKS

[53, 1]

For the 3 binders below, give their SPOT peptide array binding signal intensity values.
1. RPVPPPPPMRTTTEG
2. GKLKHIPRRPYEIER
3. QGYPRQPQRPQRYHP

[61.8, 5.5, 0.5]
